// values below are reported inhibition at 50 µM
target: recombinant Dictyostelium miozin (Dictyostelium) (Dictyostelium discoideum, UniProt P08799); experiment: actomyosin steady state ATPase measurement, Dictyostelium myosin; type: biochemical; settings: read-out: % inhibition at 50 μM (or 100 μM if racemate) Dicty
Sequence (P08799 whole entry): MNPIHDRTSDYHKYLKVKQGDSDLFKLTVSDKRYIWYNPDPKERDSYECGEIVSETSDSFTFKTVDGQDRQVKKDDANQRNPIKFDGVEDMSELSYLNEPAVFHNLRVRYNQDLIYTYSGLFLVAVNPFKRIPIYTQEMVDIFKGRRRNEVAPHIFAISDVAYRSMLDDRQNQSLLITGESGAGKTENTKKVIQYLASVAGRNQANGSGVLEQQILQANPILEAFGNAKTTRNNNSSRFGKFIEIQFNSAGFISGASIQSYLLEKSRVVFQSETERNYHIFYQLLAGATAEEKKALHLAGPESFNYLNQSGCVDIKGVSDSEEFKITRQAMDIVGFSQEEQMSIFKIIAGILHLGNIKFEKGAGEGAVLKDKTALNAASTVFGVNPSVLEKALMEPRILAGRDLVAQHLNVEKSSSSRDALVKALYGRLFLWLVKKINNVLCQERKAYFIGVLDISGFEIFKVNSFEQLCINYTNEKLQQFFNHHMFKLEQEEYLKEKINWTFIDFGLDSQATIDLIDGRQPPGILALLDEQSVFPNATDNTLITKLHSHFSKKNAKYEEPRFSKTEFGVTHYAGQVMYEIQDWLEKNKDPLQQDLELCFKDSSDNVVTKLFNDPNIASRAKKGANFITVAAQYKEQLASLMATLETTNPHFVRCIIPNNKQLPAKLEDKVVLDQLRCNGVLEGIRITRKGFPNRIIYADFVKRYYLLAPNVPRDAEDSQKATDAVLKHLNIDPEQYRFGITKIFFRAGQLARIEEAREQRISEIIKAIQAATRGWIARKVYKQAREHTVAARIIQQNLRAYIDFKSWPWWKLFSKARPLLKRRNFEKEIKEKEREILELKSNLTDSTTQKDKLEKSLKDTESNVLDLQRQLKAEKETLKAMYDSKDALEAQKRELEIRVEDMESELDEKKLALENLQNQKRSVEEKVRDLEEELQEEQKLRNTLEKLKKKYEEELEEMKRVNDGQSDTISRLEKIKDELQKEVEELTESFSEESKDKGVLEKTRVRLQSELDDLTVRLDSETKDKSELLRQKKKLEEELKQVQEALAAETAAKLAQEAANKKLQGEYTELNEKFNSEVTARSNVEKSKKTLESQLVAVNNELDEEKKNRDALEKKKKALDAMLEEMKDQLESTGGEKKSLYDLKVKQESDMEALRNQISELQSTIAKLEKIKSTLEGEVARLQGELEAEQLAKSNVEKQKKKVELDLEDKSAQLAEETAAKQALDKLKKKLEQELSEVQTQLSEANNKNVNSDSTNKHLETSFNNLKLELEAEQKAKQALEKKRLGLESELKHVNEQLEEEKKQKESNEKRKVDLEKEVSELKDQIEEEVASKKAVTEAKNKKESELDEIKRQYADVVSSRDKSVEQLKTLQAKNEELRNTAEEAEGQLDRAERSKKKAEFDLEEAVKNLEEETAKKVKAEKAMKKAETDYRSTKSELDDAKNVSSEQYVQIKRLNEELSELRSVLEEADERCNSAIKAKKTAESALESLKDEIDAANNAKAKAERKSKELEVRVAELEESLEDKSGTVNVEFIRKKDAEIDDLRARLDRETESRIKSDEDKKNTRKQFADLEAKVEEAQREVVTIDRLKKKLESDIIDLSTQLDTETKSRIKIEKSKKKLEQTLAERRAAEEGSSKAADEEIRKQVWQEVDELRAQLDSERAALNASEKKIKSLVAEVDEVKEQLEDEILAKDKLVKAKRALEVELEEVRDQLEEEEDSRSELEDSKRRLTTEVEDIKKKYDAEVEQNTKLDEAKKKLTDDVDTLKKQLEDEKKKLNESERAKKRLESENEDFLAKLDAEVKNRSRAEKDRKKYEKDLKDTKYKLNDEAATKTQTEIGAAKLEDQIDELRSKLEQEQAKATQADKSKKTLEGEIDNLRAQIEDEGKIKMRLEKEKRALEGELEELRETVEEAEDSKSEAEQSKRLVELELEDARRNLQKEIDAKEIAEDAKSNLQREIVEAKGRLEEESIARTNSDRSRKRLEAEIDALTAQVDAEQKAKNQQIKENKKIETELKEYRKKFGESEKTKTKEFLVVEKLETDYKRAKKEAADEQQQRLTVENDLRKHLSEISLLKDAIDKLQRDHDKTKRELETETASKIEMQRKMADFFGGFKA

[
  {
    "Compound": "COc1ccc(N2CC[C@@]3(O)C(=O)c4ccsc4N=C23)cn1 [Compound 219]",
    "Measure unit": "%",
    "inhibition at 50 µM": 56
  },
  {
    "Compound": "Cc1cc2c(s1)N=C1N(c3ccc(CO)cc3)CCC1(O)C2=O (centres unmarked) [Compound 227]",
    "Measure unit": "%",
    "inhibition at 50 µM": 96
  },
  {
    "Compound": "O=C1c2ncccc2N=C2N(c3ccccc3)CCC12O (centres unmarked) [Compound 190]",
    "Measure unit": "%",
    "inhibition at 50 µM": 44
  },
  {
    "Compound": "O=C1c2ccsc2N=C2N(c3cccs3)CC[C@@]12O [Compound 218]",
    "Measure unit": "%",
    "inhibition at 50 µM": 39
  },
  {
    "Compound": "Nc1ccc(N2CC[C@@]3(O)C(=O)c4ccsc4N=C23)cc1 [Compound 210]",
    "Measure unit": "%",
    "inhibition at 50 µM": 34
  }
]
